Recorded pIC50 by entry
target: PDE4D2 (Homo sapiens, UniProt Q08499)
Sequence (Q08499 303-809 limits assumed): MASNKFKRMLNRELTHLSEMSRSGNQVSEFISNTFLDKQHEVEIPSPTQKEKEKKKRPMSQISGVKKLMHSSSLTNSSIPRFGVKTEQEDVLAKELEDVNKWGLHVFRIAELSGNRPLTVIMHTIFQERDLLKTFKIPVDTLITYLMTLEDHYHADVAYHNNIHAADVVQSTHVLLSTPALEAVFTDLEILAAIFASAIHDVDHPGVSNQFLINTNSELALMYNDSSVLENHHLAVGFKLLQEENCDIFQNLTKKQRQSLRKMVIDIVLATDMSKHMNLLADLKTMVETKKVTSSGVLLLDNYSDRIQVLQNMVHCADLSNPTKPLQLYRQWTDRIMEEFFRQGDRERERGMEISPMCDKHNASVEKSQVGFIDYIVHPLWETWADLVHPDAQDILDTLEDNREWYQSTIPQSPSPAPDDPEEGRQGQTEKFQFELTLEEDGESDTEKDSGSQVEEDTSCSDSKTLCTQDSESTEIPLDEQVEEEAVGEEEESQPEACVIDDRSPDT
The read-out pIC50 is expressed as -log10 of concentration in moles per litre.

Q: Report measured pIC50 on PDE4D2 (Homo sapiens, UniProt Q08499); entry: O=C1OCCN1c1ccc2c(c1)CCN(c1nc3c(c(NC4(CO)CCC4)n1)[S@+]([O-])CC3)C2 [Compound 80]
A: 9.25

---

target: PDE4B2 (Homo sapiens, UniProt Q07343)
Construct: expressed in transfected cells; host or cells: Flp-In-293 (Flpin-293-PDE4B2 [sic])
Sequence (Q07343 1-564 isoform Q07343-2): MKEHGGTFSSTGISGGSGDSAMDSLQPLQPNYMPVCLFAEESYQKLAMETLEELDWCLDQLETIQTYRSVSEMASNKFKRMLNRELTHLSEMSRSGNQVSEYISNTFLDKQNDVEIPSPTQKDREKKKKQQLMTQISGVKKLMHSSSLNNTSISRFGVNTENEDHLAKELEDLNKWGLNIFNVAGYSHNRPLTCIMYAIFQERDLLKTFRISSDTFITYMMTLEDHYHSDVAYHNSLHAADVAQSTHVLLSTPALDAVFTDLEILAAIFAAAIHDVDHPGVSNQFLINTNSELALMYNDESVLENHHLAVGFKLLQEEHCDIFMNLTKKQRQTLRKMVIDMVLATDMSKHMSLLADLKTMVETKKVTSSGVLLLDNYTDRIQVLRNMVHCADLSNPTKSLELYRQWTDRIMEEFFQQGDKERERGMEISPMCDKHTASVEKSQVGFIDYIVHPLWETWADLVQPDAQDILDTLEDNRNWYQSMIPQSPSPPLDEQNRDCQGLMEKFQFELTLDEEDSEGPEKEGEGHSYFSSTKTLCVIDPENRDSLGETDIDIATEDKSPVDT
test method notes: PDE4B2 cell experiment (cAMP, Eu-cAMP tracer / Ulight-anti-cAMP)
Type: cell-based
condition set: Flpin-293-PDE4B2 cells, 10 nM
readout kind: inhibition at 0.01 µM (%)
I only need the number, in %, no unit after it.

Worked examples follow.
[O-][S@+]1CCc2nc(N3CCc4scc(Br)c4C3)nc(NC3(CO)CCC3)c21	14.9
[O-][S@+]1CCc2nc(N3CC[C@@H]4c5ccc(Cl)cc5CC[C@@H]4C3)nc(NC3(CO)CCC3)c21	16
Cn1c(=O)oc2cc3c(cc21)CCN(c1nc2c(c(NC4(CO)CCC4)n1)[S@+]([O-])CC2)C3	56.3

Q: Give the reported inhibition at 0.01 µM for this molecule. [O-][S@+]1CCc2nc(N3CCc4sc(I)cc4C3)nc(NC3(CO)CCC3)c21
A: 40.6

Q: Give the reported inhibition at 0.01 µM for this molecule. N#Cc1ccc2c(c1)CN(c1nc3c(c(NC4(CO)CCC4)n1)[S@+]([O-])CC3)C2
A: 21.2

Q: Give the reported inhibition at 0.01 µM for this molecule. O=c1[nH]c2cc3c(cc2o1)CN(c1nc2c(c(NC4(CO)CCC4)n1)[S@+]([O-])CC2)CC3
A: 38.4

Q: Give the reported inhibition at 0.01 µM for this molecule. [O-][S@+]1CCc2nc(N3Cc4nc5cc(Cl)ccn5c4C3)nc(NC3(CO)CCC3)c21
A: 3.5

Q: Give the reported inhibition at 0.01 µM for this molecule. Cn1cnc2c1CN(c1nc3c(c(NC4(CO)CCC4)n1)[S@+]([O-])CC3)CC2
A: 20.3

---

target: PDE4B2 (Homo sapiens, UniProt Q07343)
Construct: expressed in transfected cells; host or cells: Flp-In-293 (Flpin-293-PDE4B2 [sic])
test method notes: PDE4B2 cell experiment (cAMP, Eu-cAMP tracer / Ulight-anti-cAMP)
Assay type: cell-based
condition set: Flpin-293-PDE4B2 cells, 100 nM
readout kind: Cell Inhibition% @100 nM

Q: Give the reported Cell Inhibition% @100 nM for this compound. O=C1CCCN1c1ccc2c(c1)CCN(c1nc3c(c(NC4(CO)CCC4)n1)[S+]([O-])CC3)C2 (stereo not shown)
A: 89.06%

---

target: PDE4B2 (Homo sapiens, UniProt Q07343)
Construct: expressed in transfected cells; host or cells: Flp-In-293 (Flpin-293-PDE4B2 [sic])
test method notes: PDE4B2 cell experiment (cAMP, Eu-cAMP tracer / Ulight-anti-cAMP)
Type: cell-based
condition set: Flpin-293-PDE4B2 cells, 1 nM
readout kind: Cell Inhibition% @1 nM (%)
I only need the number, in %, no unit after it.

Q: Give the reported Cell Inhibition% @1 nM for this molecule. CS(=O)(=O)c1ccc2c(c1)CCN(c1nc3c(c(NC4(CO)CCC4)n1)[S+]([O-])CC3)C2 (stereo not shown)
A: 14.02

Q: Give the reported Cell Inhibition% @1 nM for this molecule. [O-][S+]1CCc2nc(N3CCc4cc(N5CCCC5)ccc4C3)nc(NC3(CO)CCC3)c21 (stereo not shown)
A: 3.35

Q: Give the reported Cell Inhibition% @1 nM for this molecule. [O-][S+]1CCc2nc(N3CCC4=C(COc5ccccc54)C3)nc(NC3(CO)CCC3)c21 (stereo not shown)
A: 1.66

Q: Give the reported Cell Inhibition% @1 nM for this molecule. Cc1ccc2c(c1)OC[C@H]1CN(c3nc4c(c(NC5(CO)CCC5)n3)[S+]([O-])CC4)CC[C@H]21 (stereo partly shown)
A: 12.30

Q: Give the reported Cell Inhibition% @1 nM for this molecule. [O-][S+]1CCc2nc(N3CCc4cc(I)ccc4C3)nc(NC3(CO)CCC3)c21 (stereo not shown)
A: 14.20

Q: Give the reported Cell Inhibition% @1 nM for this molecule. COc1nc2c(c3ccc(Cl)cc13)CCN(c1nc3c(c(NC4(CO)CCC4)n1)[S+]([O-])CC3)C2 (stereo not shown)
A: 4.18

Q: Give the reported Cell Inhibition% @1 nM for this molecule. [O-][S+]1CCc2nc(N3CC[C@@H]4c5cc(Cl)ccc5OC[C@H]4C3)nc(NC3(CO)CCC3)c21 (stereo partly shown)
A: -0.82
